B1: Chromodomain-helicase-DNA-binding protein 4, residues 444 to 496; numbered along this chain, Q14839 (parent)
chain: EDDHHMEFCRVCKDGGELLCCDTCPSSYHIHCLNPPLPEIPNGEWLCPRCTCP

Variants of: B1
Assay: abundance fitness (aPCA) (normalised: wild type 0, dead -1); higher = more abundant; growth selection in yeast, the domain comes from the species named
Settings: Homo sapiens
Records here are stratified by abundance fitness; strata: band A = under -0.3, band B = from -0.3 up to -0.04, band C = -0.04 and over

VARIANT ANNOTATION | GROUP LABEL
E17D | band B
D3H | band C
D22G | band C
T23R | band C
C32A | band A
Y28Q | band A
H5E | band C
C52P | band A
P48I | band A
Y28T | band A
P38E | band B
L37E | band B
R10V | band B
L18A | band A
D14L | band C
D3Q | band C
P48M | band A
C52E | band C
L46D | band B
T51C | band B
H5P | band B
E39A | band C
G15Y | band B
H4F | band C
C12K | band A
H4C | band C
R10Y | band C
P36A | band C
L19R | band A
M6N | band B
E39R | band B
D22V | band B
T51W | band B
C12I | band A
W45S | band A

Data origin: the Human Domainome abundance scans (Beltran et al. 2025)
